Data origin: ChEMBL document CHEMBL1201862

- Test system: HL-60
- METHOD_DESCRIPTION: NCI tumour cell line growth inhibition, 48 h
Calls of active or inactive are those of the source. No stated cut-off is given here; in the data, active = GI50 up to about 1.1 µM and inactive = higher.
Possible outcomes: 1 (active), -1 (inactive)

MOLECULE	TARGET_DESC	CAT
C=CCCON(C(=O)OC(C)(C)C)C(C)(C)C	HL-60	-1
N#CNc1nc(C(=O)Nc2ccc(Cl)cc2)cc(-c2ccccc2)n1	HL-60	-1
COC(=O)c1cncc2c1CC1C3(C(=O)OC)C=NC(C4C(CO)=CCC43)C21C (stereo unspecified)	HL-60	-1
NC(=O)c1cc(N(CCO)CCO)c([N+](=O)[O-])cc1[N+](=O)[O-]	HL-60	-1
CN1CCCN2CCN(C)CCCN(CC1)CC2	HL-60	-1
O=c1c2c(sc3ccccc13)NCN(CCc1ccccc1)C2	HL-60	-1
CC(C)C1=CC(=O)C(C)(C2=NC(C)(C)CO2)c2ccccc21 (stereo unspecified)	HL-60	-1
NC1C=NNC1=O (stereo unspecified)	HL-60	-1
Cc1ccc(/C=C2\CN(C)CC3=C2N=C(S)NC3c2ccc(C)cc2)cc1 (stereo unspecified)	HL-60	-1
NC(=S)N/N=C/c1nccc2ccccc12	HL-60	1
c1ccc([P+](CCCCCC[P+](c2ccccc2)(c2ccccc2)c2ccccc2)(c2ccccc2)c2ccccc2)cc1	HL-60	-1
Cc1cccc(N(C(=O)Nc2ccc(Cl)c(Cl)c2)C2=NCC(C)S2)c1 (stereo unspecified)	HL-60	-1
CC(=O)C1=NN(c2ccccc2)C2(S1)SC(c1ccccc1)(c1ccccc1)c1ccccc12 (stereo unspecified)	HL-60	-1
O=[N+]([O-])c1ccc(C2=Nn3c(nnc3-c3ccc(Cl)cc3)SC2)o1	HL-60	1
C#C[C@]1(O)[C@@H](CO)O[C@@H](n2ccc(=O)[nH]c2=O)[C@@H]1O	HL-60	1
C=C1C(=O)C=C[C@]2(C)CC[C@H]3C(=C)C(=O)O[C@@H]3[C@@H]12	HL-60	-1
Cc1ccc(C(CCO)CCO)nc1	HL-60	-1
O=C1N[C@@H](COc2ccc(/C=N/c3ccc(CCc4ccc(/N=C/c5ccc(OC[C@@H]6COC(=O)N6)cc5)cc4)cc3)cc2)CO1	HL-60	-1
COC(=O)[C@@H]1C[C@H]([Se]c2ccccc2)CN1C(=O)OCc1ccccc1	HL-60	-1
CC(=O)c1ccccc1NC(=O)C(=O)C(C(=O)c1ccccc1-c1ccccc1)C1OC(=O)c2ccccc21 (stereo unspecified)	HL-60	-1
COc1ccc(N2C(=O)C3c4[nH]c5ccccc5c4C4CC(C)(C)CC(C)(C)C4C3C2=O)cc1 (stereo unspecified)	HL-60	-1

###

- System: LOX IMVI
- METHOD_DESCRIPTION: NCI tumour cell line growth inhibition, 48 h
Active and inactive are the calls of the source. No stated cut-off is given here; in the data, active = GI50 up to about 1.1 µM and inactive = higher. Peptide text beside a SMILES is read from it. * marks the point of attachment. Boc = CC(C)(C)OC(=O)*; OBn = c1ccc(CO*)cc1

MOLECULE	GI50
CCOC(=O)CC(=O)NC1CC2CCC1(C)C2(C)C (stereo not drawn)	> 100 µM (inactive)
N#Cc1c(-c2ccccc2)cc(Nc2ccc(F)cc2)n2c1nc1ccccc12	3.33 µM (inactive)
c1coc(C2=Nc3cccc4cccc(c34)N2)c1	41.9 µM (inactive)
O=C(CCl)NC(Cc1ccc(F)cc1)C(=O)O (stereo not drawn)	> 100 µM (inactive)
c1ccc([P+](CCCCCC[P+](c2ccccc2)(c2ccccc2)c2ccccc2)(c2ccccc2)c2ccccc2)cc1	12.2 µM (inactive)
C[N+](C)(C)CC1CCCC/C1=N\O (stereo not drawn)	> 100 µM (inactive)
COc1ccc(OC)c(CNc2ccc(C(=O)O)cc2)c1	> 100 µM (inactive)
Cc1ccc(S(=O)(=O)N/N=C2\CC(C)OC3=C2CCCCCC3)cc1 (stereo not drawn)	18.7 µM (inactive)
O=S1(=O)CCN(Cc2ccccn2)CC1	> 100 µM (inactive)
COc1cc(NCC(C#N)C#N)ccc1/N=N/c1ccc(Cl)cc1	18.2 µM (inactive)
O=c1c2c(sc3ccccc13)NCN(CCc1ccccc1)C2	33.5 µM (inactive)
O=C(CSc1nc2ccccc2c2ccccc12)c1ccccc1	> 100 µM (inactive)
CCOc1ccccc1/N=N/c1ccc2oc(=O)c(C(C)=O)cc2c1	> 100 µM (inactive)
CC(=O)C1=NN(c2ccccc2)C2(S1)SC(c1ccccc1)(c1ccccc1)c1ccccc12 (stereo not drawn)	61.5 µM (inactive)
Cc1ccc(C(CCO)CCO)nc1	> 100 µM (inactive)
Cc1cc(-c2ccc(C(=O)C(c3ccccc3)(c3ccccc3)c3ccccc3)[nH]2)on1	19.5 µM (inactive)
Oc1nc2cc3nc(O)c(O)nc3cc2nc1O	> 100 µM (inactive)
COC(=O)[C@@H]1C[C@H]([Se]c2ccccc2)CN1C(=O)OCc1ccccc1	12.6 µM (inactive)
COc1ccc(C2c3cc4c(cc3OC(N3CCCCC3)C2C)OCO4)cc1 (stereo not drawn)	> 100 µM (inactive)
O=C1c2ccccc2C(=O)N1[C@@H](Cc1ccccc1)C(=O)n1cccc1CO	> 100 µM (inactive)
CC(C)CC(NC(=O)OC(C)(C)C)C(=O)NC(CC(=O)OCc1ccccc1)C(N)=O (stereo not drawn) (Boc-Leu-Asp(OBn)-NH2; configuration not given here)	> 100 µM (inactive)
O=C(NC(Cc1ccccc1)(Cc1ccc(O)cn1)C(=O)O)c1ccccc1 (stereo not drawn)	> 100 µM (inactive)
Cc1sc(Cc2ccccc2)nc1-c1ccc(N)cc1	15.2 µM (inactive)
CN(C)CCCNc1ccnc2cccc([N+](=O)[O-])c12	13.6 µM (inactive)
C/C(=C(/C)c1cc[n+](C)cc1)c1cc[n+](C)cc1	43.6 µM (inactive)
CN(C)CC(/C(Cc1ccccc1)=N\NC(=S)NN)c1ccccc1 (stereo not drawn)	> 100 µM (inactive)
CCCC(=O)Nc1cc(/C=C/C(=O)N2CC(CCl)c3ccc([N+](=O)[O-])cc32)n(C)c1 (stereo not drawn)	73.5 µM (inactive)
O=C1N=C(SC(SC2=NC(=O)C3(NN2)c2ccccc2-c2ccccc23)=C(SC2=NC(=O)C3(NN2)c2ccccc2-c2ccccc23)SC2=NC(=O)C3(NN2)c2ccccc2-c2ccccc23)NNC12c1ccccc1-c1ccccc12	> 10 µM (inactive)
O=C1C=C[C@@H](COC2OC(CO)C(O)C(O)C2O)O1 (stereo partly drawn)	3.88 µM (inactive)
CCCn1c(CN(Cc2nc3ccccc3n2CCC)Cc2nc3ccccc3n2CCC)nc2ccccc21	3.7 µM (inactive)
O=C1CCCc2ccc3c(c21)CC1(Cc2cc4c(cc2C1)CCCC4)C3	14.6 µM (inactive)
O=c1[nH]nc(-c2ccccc2)n1Nc1ccccc1	> 100 µM (inactive)
CC[C@@H]1CC[C@@H]2[C@H](CC[C@]3(C)[C@@H](O[N+](=O)[O-])CC[C@@H]23)[C@H]1C(C)=O	20 µM (inactive)
Nc1[nH]nc2ccccc12	> 100 µM (inactive)
O=C1CC2(CCNCC2)C(=O)N1N1CCCC1	> 100 µM (inactive)
COc1cc2c(c(O)c1C)C(=O)CC(c1ccccc1)O2 (stereo not drawn)	> 10 µM (inactive)
O=C(O)C1=C(Cl)c2ccccc2S1(=O)=O	> 100 µM (inactive)
CCOC(=O)C1=CC(C)(C(=O)OCC)Nc2c(nc(N)[nH]c2=O)N1 (stereo not drawn)	> 10 µM (inactive)
O=C1/C(=C\c2cccc(Oc3ccccc3)c2)SC(c2ccccc2)N1c1cccc([N+](=O)[O-])c1 (stereo not drawn)	41.6 µM (inactive)
Nc1ccc(O)c2c1C(=O)c1c(N)ccc(O)c1C2=O	> 100 µM (inactive)
CC(C)Cc1cc2c(cc1O)CCC1C2CC[C@@]2(C)C1CC[C@@H]2O (stereo partly drawn)	6.22 µM (inactive)
Cc1cc(N2CCCCC2)nc2ccc(Cc3ccc4nc(N5CCCCC5)cc(C)c4c3)cc12	> 100 µM (inactive)
C1CCCCC2(CCCCCCCCC3(CCC1)OCCO3)OCCO2	> 100 µM (inactive)
